system: Oligodendrocyte progenitor cells (OPCs); experiment: In vitro OPC differentiation assay, GPR17 expression (immunocytochemistry); settings: 3 μM (10× concentration, final 0.3 μM); 72 hours; fold change over vehicle
# note: exactly 5 is not below, so it is 0.0; use 1.0 for GPR17 Fold Induction (Over Vehicle; 3 μM) strictly under it

compound	answer_label
Cn1cc(-c2ccc3c(N4CCN(c5cnc(Cc6ccccc6)cn5)CC4)cnn3c2)cn1	1.0
CN(CCNc1ncc(Cc2ccccc2)cn1)c1cnn2cc(-c3cnn(C)c3)ccc12	1.0
C[C@@H](OC(=O)N1CCN(c2cnn3cc(-c4cnn(C)c4)ccc23)CC1)c1cccc(F)c1	0.0

// next entry
Enquiry: Please determine if CN1CCC(c2ccc3c(N4CCN(C(=O)OC(C)(C)C)CC4)cnn3c2)CC1 is below 5 in terms of GPR17 Fold Induction (Over Vehicle; 3 μM).
Return: 1.0

----------
# maps each entry to its GPR17 Fold Induction (Over Vehicle; 3 μM)
tested on: Oligodendrocyte progenitor cells (OPCs); assay: In vitro OPC differentiation assay, GPR17 expression (immunocytochemistry); conditions: 3 μM (10× concentration, final 0.3 μM); 72 hours; fold change over vehicle
Provide a numeric answer; units are not to be included.

Example entries and their recorded answers appear below.
compound	experimental_value
CC(C)(C)OC(=O)N1CCN(c2cnn3cc(-c4ccccc4F)ccc23)CC1	2.02
CN1CCC(OC(=O)N2CCN(c3cnn4cc(-c5cnn(C)c5)ccc34)CC2)CC1	0.83
Cn1cc(-c2ccc3c(N4CCN(c5ncc(C(O)C6CCCCO6)cn5)CC4)cnn3c2)cn1 (stereo not shown)	8.67
Cn1cc(-c2ccc3c(N4CCN(C(=O)OCc5ccccc5)CC4)cnn3c2)cn1	8.42
Cn1cc(-c2ccc3c(N4CCN(C(=O)OCc5ncc(Cl)s5)CC4)cnn3c2)cn1	5.57
C[C@@H](OC(=O)N1CCN(c2cnn3cc(-c4cnn(C)c4)ccc23)CC1)c1ccc(Cl)c(Cl)c1	5.77
CC1CN(c2cnn3cc(-c4cnn(C)c4)ccc23)CCN1C(=O)OC(C)(C)C (stereo not shown)	6.34
Cn1cc(-c2ccc3c(N4CCN(c5ncc(C(CO)c6ccc(F)cc6)cn5)CC4)cnn3c2)cn1 (stereo not shown)	10.85
Cn1cc(-c2ccn3c(N4CCCN(c5ncc(Cc6ccccc6)cn5)CC4)cnc3n2)cn1	3.19
Cn1cc(-c2ccc3c(N4CCN(c5ccc(Cc6ccccc6)cn5)CC4)cnn3c2)cn1	6.40

Enquiry: Query (compound): C[C@@H](OC(=O)N1CCN(c2cnn3cc(-c4cnn(C)c4)ccc23)CC1)c1ccc(F)cc1 ; field requested: GPR17 Fold Induction (Over Vehicle; 3 μM)
Return: 7.12

Enquiry: Query (compound): Cn1cc(-c2ccc3c(N4CC(Nc5ncc(Cc6ccccc6)cn5)C4)cnn3c2)cn1 ; field requested: GPR17 Fold Induction (Over Vehicle; 3 μM)
Return: 8.88

Enquiry: Query (compound): Cc1cn(-c2ccn3c(N4CCN(C(=O)OC(C)(C)C)CC4)cnc3n2)cn1 ; field requested: GPR17 Fold Induction (Over Vehicle; 3 μM)
Return: 1.40

Enquiry: Query (compound): CC(C)(C)OC(=O)N1CCN(c2cnn3cc(-c4cnn5c4CCCC5)ccc23)CC1 ; field requested: GPR17 Fold Induction (Over Vehicle; 3 μM)
Return: 6.03

Enquiry: Query (compound): Cn1cc(-c2ccc3c(N4CCN(c5ncc(C(O)c6ccccc6)cn5)CC4)cnn3c2)cn1 (stereo not shown) ; field requested: GPR17 Fold Induction (Over Vehicle; 3 μM)
Return: 9.66

Enquiry: Query (compound): Cn1cc(-c2ccc3c(C4CCC(CCc5ccccc5)CC4)cnn3c2)cn1 (stereo not shown) ; field requested: GPR17 Fold Induction (Over Vehicle; 3 μM)
Return: 1.09
